Cited source for all entries: patent US5854407A

The compounds listed here are annotated with their log10(ED200).
Tested on: Gastric Motor of Dogs
Test: Effect (GMS activity) on gastric motor of dogs (strain gauge force transducer, gastric antrum, i.v.)
Assay type: in vivo, dogs (Beagles)
Details: Canis lupus familiaris, iv; Table 3; dose inducing contraction area of 200%; dogs, i.v., as lactobionic acid solution; read-out: ED200
All values: log10 ED200 [µg/kg].

- compound: "CC[C@H]1OC(=O)[C@H](C)[C@@H](O[C@H]2C[C@@](C)(OC)[C@@H](O)[C@H](C)O2)[C@H](C)[C@@H](O[C@@H]2O[C@H](C)C[C@H](N(C)CC)[C@H]2O)[C@@]2(C)CC(C)=C(O2)[C@H](C)[C@@H](O)[C@]1(C)O [Compound (2), reference compound]"
  numericResult: 0.90
- compound: "CC[C@H]1OC(=O)[C@H](C)[C@@H](O[C@H]2C[C@@](C)(OC)[C@@H](O)[C@H](C)O2)[C@H](C)[C@@H](O[C@@H]2O[C@H](C)C[C@H](N(C)C(C)C)[C@H]2O)[C@@]2(C)CC(C)=C(O2)[C@H](C)[C@@H](O)[C@]1(C)O [Compound (1), reference compound]"
  numericResult: -0.05
- compound: "CCN(C)[C@H]1C[C@@H](C)O[C@@H](O[C@@H]2[C@@H](C)[C@H](O[C@H]3C[C@@](C)(OC)[C@@H](O)[C@H](C)O3)[C@@H](C)C(=O)O[C@H](C(C)O)[C@@](C)(O)[C@H](O)[C@@H](C)C3=C(C)C[C@@]2(C)O3)[C@@H]1O (some centres unmarked)"
  numericResult: 0.26

Query CO[C@]1(C)C[C@H](O[C@H]2[C@H](C)[C@@H](O[C@@H]3O[C@H](C)C[C@H](N(C)C(C)C)[C@H]3O)[C@@]3(C)CC(C)=C(O3)[C@H](C)[C@@H](O)[C@](C)(O)[C@@H](CCO)OC(=O)[C@@H]2C)O[C@@H](C)[C@@H]1O yields log10(ED200) of -0.30

Query CO[C@]1(C)C[C@H](O[C@H]2[C@H](C)[C@@H](O[C@@H]3O[C@H](C)C[C@H](N(C)C(C)C)[C@H]3O)[C@@]3(C)CC(C)=C(O3)[C@H](C)[C@@H](O)[C@](C)(O)[C@@H](C(C)O)OC(=O)[C@@H]2C)O[C@@H](C)[C@@H]1O (some centres unmarked) yields log10(ED200) of -0.40
